This listing pairs compounds with measured pIC50.
# assay.protocol: Inhibition of Brucella suis histidinol dehydrogenase assessed as NADH released as a by-product preincubated for 5 min at 30 degC by spectrophotometric method
pIC50: −log10 of the molar value.

smiles.structure: O=C(Cc1ccc(Cl)cc1)[C@@H]1Cc2cncn2C(=O)N1
pIC50: 4.04

smiles.structure: N[C@@H](Cc1c[nH]cn1)C(=O)Cc1ccc(Br)cc1
pIC50: 8.22

smiles.structure: Cc1ccc(CC(=O)[C@@H]2Cc3cncn3C(=O)N2)cc1
pIC50: 3.95

smiles.structure: N[C@@H](Cc1c[nH]cn1)C(=O)Cc1ccc(Cl)cc1
pIC50: 7.92

smiles.structure: Cc1ccc(CC(=O)[C@@H](N)Cc2c[nH]cn2)cc1
pIC50: 7.82

smiles.structure: N[C@@H](Cc1c[nH]cn1)C(=O)Cc1ccc(F)cc1F
pIC50: 8.00

smiles.structure: O=C(Cc1ccc(Cl)cc1)[C@@H]1Cc2cncn2C(=S)N1
pIC50: 4.13

smiles.structure: O=C(Cc1ccc(F)cc1F)[C@@H]1Cc2cncn2C(=O)N1
pIC50: 3.84

smiles.structure: O=C(Cc1ccc(Br)cc1)[C@@H]1Cc2cncn2C(=O)N1
pIC50: 4.01

smiles.structure: O=C(Cc1ccc(F)cc1F)[C@@H]1Cc2cncn2C(=S)N1
pIC50: 4.02

smiles.structure: O=C(Cc1ccc(Br)cc1)[C@@H]1Cc2cncn2C(=S)N1
pIC50: 3.98

smiles.structure: COC(=O)[C@@H]1Cc2cncn2C(=S)N1
pIC50: 4.74
